# Test system: MOLT-4
# assayComment: NCI tumour cell line growth inhibition, 48 h
Active and inactive are the calls of the source. No stated cut-off is given here; in the data, active = GI50 up to about 1.1 µM and inactive = higher.
measuredMetric: GI50

{"compound": "Cc1c(C=C(C#N)C#N)c(=O)n(C)c(=O)n1C", "measuredMetric": "GI50", "obsValue": "95.3 µM (inactive)"}
{"compound": "Cc1c2c(c(C)n1-c1ccccc1)C(=O)N(CCSC(=N)N)C2=O", "measuredMetric": "GI50", "obsValue": "14.2 µM (inactive)"}
{"compound": "COc1nc(C(=O)O)c(Cl)c(OC)c1Cl", "measuredMetric": "GI50", "obsValue": "> 100 µM (inactive)"}
{"compound": "O=C1C=C2C(=NC34CCCCC3C(c3ccccc3)C3=C(c5ccccc5CC3)N24)c2ccccc21 (stereo unspecified)", "measuredMetric": "GI50", "obsValue": "> 10 µM (inactive)"}
{"compound": "CC(=O)OCCOCNC(=S)N/N=C(\\C)c1cnccn1", "measuredMetric": "GI50", "obsValue": "14.1 µM (inactive)"}
{"compound": "COc1c(C)c(O)c2c(c1C)OC(c1ccccc1)CC2=O (stereo unspecified)", "measuredMetric": "GI50", "obsValue": "31.8 µM (inactive)"}

----------
# System: UO-31
# assayComment: NCI tumour cell line growth inhibition, 48 h
Active and inactive are the calls of the source. No stated cut-off is given here; in the data, active = GI50 up to about 1.1 µM and inactive = higher.
GI50 values for the molecules below.
measuredMetric: GI50

{"molecule": "NCCCNCCCCN1CC1", "measuredMetric": "GI50", "obsValue": "7.18 µM (inactive)"}
{"molecule": "CCC1CN2CCc3cc(OC)c(OC)cc3C2CC1CC1c2cc(OC)c(OC)cc2CCN1C(=O)C1CCCN1 (stereo not given)", "measuredMetric": "GI50", "obsValue": "21.5 µM (inactive)"}
{"molecule": "C[N+](C)(C)CCC(=O)CC[N+](C)(C)C", "measuredMetric": "GI50", "obsValue": "92 µM (inactive)"}
{"molecule": "N#Cc1c(N)nc2[nH]nc(N)c2c1-c1ccc(Cl)cc1", "measuredMetric": "GI50", "obsValue": "2.42 µM (inactive)"}
{"molecule": "O=C(c1ccccc1)c1ccc(N2C(=O)/C(=C/c3cccc(Oc4ccccc4)c3)N=C2c2ccccc2)c(N2C(=O)/C(=C/c3cccc(Oc4ccccc4)c3)N=C2c2ccccc2)c1", "measuredMetric": "GI50", "obsValue": "33.3 µM (inactive)"}

----------
# Tested on: RPMI-8226
# assayComment: NCI tumour cell line growth inhibition, 48 h
Activity calls are given as the source filed them. Cut-off read from the data, not from the text of the source: active = GI50 up to about 1.1 µM and inactive = higher.
Classes used: T = active, F = inactive

{"compound": "Cc1c2c(c(O)c3c(O)cccc13)C(=O)C1(O)C(=O)C(C(=O)NCNc3ccc(C(N)=O)cn3)=C(O)C(N(C)C)C1C2 (stereo unspecified)", "group": "F"}
{"compound": "CCC(CC)C(=O)OC[n+]1cccc(-c2c(COC(=O)NC(C)C)c(COC(=O)NC(C)C)c3n2CCC3)c1", "group": "F"}
{"compound": "COc1ccc(-c2cc(-c3ccccc3)n(C3OC(COC(C)=O)C(OC(C)=O)C(OC(C)=O)C3OC(C)=O)c(=S)c2C#N)cc1 (stereo unspecified)", "group": "F"}
{"compound": "Cc1c(/C=N/NC(=S)Nc2ccc([N+](=O)[O-])cc2)c(=O)n(-c2ccccc2)n1C", "group": "F"}
{"compound": "COc1ccc2oc3cccc(NCCN(C)C)c3c(=O)c2c1", "group": "F"}
{"compound": "O=C(c1ccccc1)c1ccc(N2C(=O)/C(=C/c3cccc(Oc4ccccc4)c3)N=C2c2ccccc2)c(N2C(=O)/C(=C/c3cccc(Oc4ccccc4)c3)N=C2c2ccccc2)c1", "group": "F"}
{"compound": "CCN(CC)CCNc1ccc2nc(C)n3c4ccc(O)cc4c(=O)c1c23", "group": "F"}
{"compound": "O=[N+]([O-])c1ccc(N2N=C(c3ccc(NCc4nc5ccccc5[nH]4)cc3)CC2c2ccco2)cc1 (stereo unspecified)", "group": "F"}
{"compound": "CC(=O)OCC1OC(n2ccc(=O)[nH]c2=O)C(OC(C)=O)C(OC(C)=O)C1OC(C)=O (stereo unspecified)", "group": "F"}
{"compound": "NC(=O)C(N)=O", "group": "F"}
{"compound": "COC1CCC(OC)C(C2(C3CC(OC)CCC3OC)OC(=O)c3ccccc32)C1 (stereo unspecified)", "group": "F"}
{"compound": "COC(=O)[C@H](Cc1ccccc1)NC(=O)N(CCNC(=O)OC(C)(C)C)c1ccccc1", "group": "F"}
{"compound": "CC(O)CCC(=O)c1ccoc1 (stereo unspecified)", "group": "F"}
{"compound": "COC1=CC(=O)C2C(C1=O)[C@@H]1c3ccccc3C[C@H]21 (stereo partly specified)", "group": "F"}
{"compound": "C[C@]12CCC[C@H](O)[C@H]1C[C@H](CO)CC2", "group": "F"}
{"compound": "C=CC[C@@H]1C=C[C@@H](C(=O)OC)n2c(=O)n(-c3ccccc3)c(=O)n21", "group": "F"}
{"compound": "NCCCNCCCCN1CC1", "group": "F"}
{"compound": "CC(C)C(=O)Oc1cc2c(=O)oc3c(OC(=O)C(C)C)c(OC(=O)C(C)C)cc4c(=O)oc(c1OC(=O)C(C)C)c2c34", "group": "F"}
{"compound": "CCN(CC)c1cccc2c1/C(=N/O)CCCC2", "group": "F"}
{"compound": "CN1N=CSC12C(=O)N(c1ccccc1)C(=O)N2c1ccccc1 (stereo unspecified)", "group": "F"}
{"compound": "Cn1c2ccccc2c2ccc3c(c21)C(=O)c1ccccc1C3=O", "group": "F"}
{"compound": "CCC(CS(=O)(=O)O)[N+](=O)[O-] (stereo unspecified)", "group": "F"}
{"compound": "CCOC(=O)Cc1nc2nn(Cc3ccccc3)cc2c(=O)[nH]1", "group": "F"}
{"compound": "COC(=O)C1=C(C(=O)OC)C2(C)Nc3ccccc3C2=C(c2ccccc2)C1 (stereo unspecified)", "group": "F"}
{"compound": "Cc1ccc2nc(Cl)c(/C=N/N3C(=O)/C(=C/c4cccc([N+](=O)[O-])c4)N=C3c3ccccc3)cc2c1", "group": "F"}
{"compound": "Nc1c(-c2ccc(Cl)c(Cl)c2)c2ccc([N+](=O)[O-])cc2c(=O)n1-c1nc2ccccc2s1", "group": "T"}
{"compound": "CC1CC/C(=C\\c2ccc(N(C)C)cc2)C2=C1C(c1ccc(N(C)C)cc1)NC(=S)N2 (stereo unspecified)", "group": "F"}
{"compound": "CC12CCC(=O)N1c1cc([N+](=O)[O-])ccc1N2 (stereo unspecified)", "group": "F"}
{"compound": "COc1cc(Br)c(CC2C3=C(CCN2C(=O)C2CCC2)CC2(CC3)OCCO2)cc1O (stereo unspecified)", "group": "F"}
{"compound": "C=C1CC2(CCS(=O)(=O)c3ccccc32)OC1=O (stereo unspecified)", "group": "F"}
{"compound": "CCOP(=O)(OCC)C(N)Cc1ccc(OC)c(OC)c1 (stereo unspecified)", "group": "F"}
{"compound": "O=C(O)C1CC(c2ccccc2)=NN1c1ccccc1 (stereo unspecified)", "group": "F"}
{"compound": "CCc1nc(N)nc(N)c1-c1ccc(Cl)c(N=[N+]=[N-])c1", "group": "F"}
{"compound": "Nc1ncnc(NC2C=C(CO)C(O)C2O)c1[N+](=O)[O-] (stereo unspecified)", "group": "F"}
{"compound": "C=C1CC(COc2ccc3c(C)c(C)c(=O)oc3c2C)(c2ccccc2)OC1=O (stereo unspecified)", "group": "T"}
{"compound": "O=C(c1c(F)c(F)c(F)c(F)c1F)c1c(F)c(F)c(F)c(F)c1F", "group": "T"}
{"compound": "C/C(=N/NC(=O)C[n+]1ccccc1)C(CN(CC(C)C)CC(C)C)C(=O)Nc1ccc(C)cc1C (stereo unspecified)", "group": "F"}
{"compound": "COc1ccc2oc(=O)c(CC=C(C)C)c(O)c2c1C", "group": "F"}
{"compound": "CN(C)c1ccc(C2=C([O-])c3cc(-[n+]4ccccc4)ccc3C2=O)cc1", "group": "F"}
{"compound": "CCN(CC)Cc1cc(Nc2c3ccccc3nc3c4ccccc4n(C)c23)ccc1O", "group": "F"}
{"compound": "C=C1C2CCCC1C1(S(C)(=O)=O)CCCCC21O (stereo unspecified)", "group": "F"}

These entries and their values trace back to ChEMBL document CHEMBL1201862.
